# Measured target: PI3K-delta (Homo sapiens)
# Sequence (O00329 whole entry): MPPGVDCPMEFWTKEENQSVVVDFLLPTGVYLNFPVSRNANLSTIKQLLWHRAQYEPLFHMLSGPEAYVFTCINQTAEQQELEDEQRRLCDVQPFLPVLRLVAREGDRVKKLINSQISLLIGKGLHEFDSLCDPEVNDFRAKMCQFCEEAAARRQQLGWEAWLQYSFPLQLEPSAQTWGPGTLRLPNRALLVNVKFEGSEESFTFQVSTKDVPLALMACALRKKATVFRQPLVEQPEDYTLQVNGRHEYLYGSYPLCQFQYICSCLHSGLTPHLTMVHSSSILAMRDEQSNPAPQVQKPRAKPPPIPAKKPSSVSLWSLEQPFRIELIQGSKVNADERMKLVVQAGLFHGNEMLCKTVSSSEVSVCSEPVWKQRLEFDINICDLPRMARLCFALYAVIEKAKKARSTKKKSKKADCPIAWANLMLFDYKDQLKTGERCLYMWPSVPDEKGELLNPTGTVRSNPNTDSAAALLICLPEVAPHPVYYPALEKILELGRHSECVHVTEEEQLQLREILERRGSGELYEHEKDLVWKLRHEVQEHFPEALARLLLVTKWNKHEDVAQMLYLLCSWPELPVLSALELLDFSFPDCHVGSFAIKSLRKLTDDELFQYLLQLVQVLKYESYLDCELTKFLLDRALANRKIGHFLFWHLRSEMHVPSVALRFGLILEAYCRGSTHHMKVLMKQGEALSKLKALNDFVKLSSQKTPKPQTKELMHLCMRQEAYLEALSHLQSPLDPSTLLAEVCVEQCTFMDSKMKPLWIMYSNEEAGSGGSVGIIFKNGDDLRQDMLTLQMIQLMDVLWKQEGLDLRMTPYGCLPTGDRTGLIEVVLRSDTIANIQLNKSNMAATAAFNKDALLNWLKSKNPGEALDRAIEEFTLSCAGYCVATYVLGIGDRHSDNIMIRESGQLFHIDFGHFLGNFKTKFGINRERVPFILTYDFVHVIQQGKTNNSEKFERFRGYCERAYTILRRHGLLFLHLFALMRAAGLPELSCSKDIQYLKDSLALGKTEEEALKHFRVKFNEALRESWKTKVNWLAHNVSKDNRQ
# Sequence (P27986 whole entry partner): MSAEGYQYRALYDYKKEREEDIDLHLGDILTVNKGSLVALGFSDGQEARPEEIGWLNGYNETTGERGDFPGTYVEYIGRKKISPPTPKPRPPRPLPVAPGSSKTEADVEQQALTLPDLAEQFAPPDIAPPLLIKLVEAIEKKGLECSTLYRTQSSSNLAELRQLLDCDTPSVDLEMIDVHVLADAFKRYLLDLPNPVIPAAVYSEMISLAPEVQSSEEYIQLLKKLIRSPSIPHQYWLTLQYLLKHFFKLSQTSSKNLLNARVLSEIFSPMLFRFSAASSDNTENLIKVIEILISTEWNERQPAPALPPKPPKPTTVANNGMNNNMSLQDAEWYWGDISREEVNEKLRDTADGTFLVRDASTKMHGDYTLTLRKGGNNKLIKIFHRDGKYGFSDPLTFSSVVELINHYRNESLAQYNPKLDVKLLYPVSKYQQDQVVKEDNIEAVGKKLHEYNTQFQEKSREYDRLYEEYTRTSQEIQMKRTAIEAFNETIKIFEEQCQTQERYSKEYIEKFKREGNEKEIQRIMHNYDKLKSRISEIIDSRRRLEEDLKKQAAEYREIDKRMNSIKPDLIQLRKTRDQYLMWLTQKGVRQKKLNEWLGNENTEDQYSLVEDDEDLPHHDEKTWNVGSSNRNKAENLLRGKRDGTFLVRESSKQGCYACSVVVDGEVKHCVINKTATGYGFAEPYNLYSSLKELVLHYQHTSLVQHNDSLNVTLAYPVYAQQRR
# Procedure text: PI3K-δ assay (ADP-Glo)
# Assay type: biochemical
Observation type: IC50

Ask | I am curious: what IC50 value has been reported for "CCc1ccc(NC(=O)NC2CCN(c3nc(N4CCOCC4)c4sccc4n3)CC2)cc1" ?
Reply | > 20 µM

----------
# Measured target: PI3K-alpha (Homo sapiens)
# Procedure text: PI3K-α assay (ADP-Glo)
# Format: biochemical
# Test context: at 500 nM (0.5 μM); NI = no inhibition at tested concentration; 0.5 µM
The entries below come with measured % PI3Kα inhibition at 500 nM values attached.
Return type: number; implicit unit %.

{"columns": ["Compound", "Reported result"],
 "data": [
  ["CC(C)(C)OC(=O)NC1CCN(c2nc(N3CCOCC3)c3sc(C(C)(C)O)cc3n2)CC1 [Compound 17]", 81],
  ["O=C(Nc1ccc(C(F)(F)F)cc1)NC1CCN(c2nc(N3CCOCC3)c3sccc3n2)CC1 [Compound 24]", 70],
  ["CN1CCN(C(=O)c2ccc(NC(=O)NC3CCN(c4nc(N5CCOCC5)c5oc6ncccc6c5n4)CC3)cc2)CC1 [Compound 10]", 76.8]
]}

Ask | I am curious: what % PI3Kα inhibition at 500 nM value has been reported for O=C(Nc1ccccc1F)NC1CCN(c2nc(N3CCOCC3)c3sccc3n2)CC1 [Compound 25] ?
Reply | 76

Ask | I am curious: what % PI3Kα inhibition at 500 nM value has been reported for CCOC(=O)c1ccc(NC(=O)NC2CCN(c3nc(N4CCOCC4)c4oc5ncccc5c4n3)CC2)cc1 [Compound 8] ?
Reply | 85

----------
# Measured target: PI3K-beta (Homo sapiens)
# Sequence (P42338 whole entry): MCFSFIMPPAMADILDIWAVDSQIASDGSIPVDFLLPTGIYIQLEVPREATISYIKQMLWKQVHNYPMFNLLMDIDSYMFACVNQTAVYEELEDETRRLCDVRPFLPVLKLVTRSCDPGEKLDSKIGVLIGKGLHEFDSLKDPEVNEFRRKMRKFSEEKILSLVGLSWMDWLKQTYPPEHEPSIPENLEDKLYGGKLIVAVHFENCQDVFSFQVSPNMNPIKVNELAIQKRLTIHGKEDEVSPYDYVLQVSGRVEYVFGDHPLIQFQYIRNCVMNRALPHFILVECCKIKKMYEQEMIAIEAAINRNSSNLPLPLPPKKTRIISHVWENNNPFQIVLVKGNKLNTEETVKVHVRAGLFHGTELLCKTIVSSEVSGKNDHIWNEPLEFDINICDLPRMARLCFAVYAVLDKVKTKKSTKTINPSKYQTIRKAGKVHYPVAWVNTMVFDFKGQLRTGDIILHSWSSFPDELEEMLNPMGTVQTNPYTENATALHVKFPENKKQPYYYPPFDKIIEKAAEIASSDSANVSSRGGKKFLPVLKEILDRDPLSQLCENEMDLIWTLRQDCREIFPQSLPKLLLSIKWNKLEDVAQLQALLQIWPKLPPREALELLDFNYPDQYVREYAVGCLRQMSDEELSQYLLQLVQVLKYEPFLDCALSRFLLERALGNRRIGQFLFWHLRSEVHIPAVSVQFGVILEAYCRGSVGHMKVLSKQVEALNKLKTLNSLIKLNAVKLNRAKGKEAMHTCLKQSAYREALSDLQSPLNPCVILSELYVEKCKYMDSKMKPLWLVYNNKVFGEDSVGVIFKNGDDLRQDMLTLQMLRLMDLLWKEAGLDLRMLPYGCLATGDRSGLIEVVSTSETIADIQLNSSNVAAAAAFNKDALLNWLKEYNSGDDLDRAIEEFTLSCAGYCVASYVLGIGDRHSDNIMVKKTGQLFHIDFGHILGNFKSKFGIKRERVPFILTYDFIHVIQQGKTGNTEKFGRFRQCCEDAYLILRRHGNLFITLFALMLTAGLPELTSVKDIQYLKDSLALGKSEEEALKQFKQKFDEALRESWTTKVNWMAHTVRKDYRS
# Sequence (P27986 whole entry partner): as the sequence (P27986 whole entry partner) above
# Procedure text: PI3K-β assay (ADP-Glo)
# Type: biochemical
Observation type: IC50

Ask | I am curious: what IC50 value has been reported for "CCc1ccc(NC(=O)NC2CCN(c3nc(N4CCOCC4)c4sccc4n3)CC2)cc1" ?
Reply | > 20 µM

----------
The entries below come with measured inhibition at 0.5 µM values attached.
# Measured target: PI3K-alpha (Homo sapiens, UniProt P42336)
# Sequence (P42336 whole entry): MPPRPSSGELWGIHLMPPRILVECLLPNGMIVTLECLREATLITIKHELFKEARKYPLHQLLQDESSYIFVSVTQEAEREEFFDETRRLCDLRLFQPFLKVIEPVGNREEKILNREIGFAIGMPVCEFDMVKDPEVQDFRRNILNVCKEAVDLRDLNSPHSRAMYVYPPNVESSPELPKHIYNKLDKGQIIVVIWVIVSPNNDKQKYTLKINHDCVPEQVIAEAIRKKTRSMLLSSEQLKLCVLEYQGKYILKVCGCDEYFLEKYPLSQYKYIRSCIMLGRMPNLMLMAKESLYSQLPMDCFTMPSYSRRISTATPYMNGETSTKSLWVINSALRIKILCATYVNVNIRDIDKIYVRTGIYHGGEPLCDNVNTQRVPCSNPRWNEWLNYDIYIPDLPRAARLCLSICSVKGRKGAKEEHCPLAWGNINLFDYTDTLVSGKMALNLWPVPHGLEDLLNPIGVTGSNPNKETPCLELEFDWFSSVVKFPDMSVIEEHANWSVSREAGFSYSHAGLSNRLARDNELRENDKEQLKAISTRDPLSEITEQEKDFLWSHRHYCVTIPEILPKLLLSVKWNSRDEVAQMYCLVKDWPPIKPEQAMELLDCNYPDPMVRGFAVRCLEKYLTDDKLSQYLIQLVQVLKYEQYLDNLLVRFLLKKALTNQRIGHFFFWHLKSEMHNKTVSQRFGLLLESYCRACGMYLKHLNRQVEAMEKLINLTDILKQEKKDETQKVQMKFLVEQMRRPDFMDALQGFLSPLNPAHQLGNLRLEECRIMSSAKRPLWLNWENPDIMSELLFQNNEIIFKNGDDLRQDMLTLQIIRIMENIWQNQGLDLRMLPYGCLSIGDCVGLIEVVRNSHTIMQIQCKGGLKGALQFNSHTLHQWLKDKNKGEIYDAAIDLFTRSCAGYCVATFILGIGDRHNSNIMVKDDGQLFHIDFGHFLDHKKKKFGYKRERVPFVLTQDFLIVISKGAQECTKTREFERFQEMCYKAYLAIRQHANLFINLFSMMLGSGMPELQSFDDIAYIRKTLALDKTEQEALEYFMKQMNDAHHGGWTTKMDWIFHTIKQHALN
# Sequence (P27986 whole entry partner): as the sequence (P27986 whole entry partner) above
# Procedure text: PI3K-α assay (ADP-Glo)
# Assay type: biochemical
# Test context: at 500 nM (0.5 μM); NI = no inhibition at tested concentration; read-out: % PI3Kα inhibition at 500 nM

Solved cases below.
{"columns": ["Molecule", "Observation type", "Reported result"],
 "data": [
  ["O=C(Nc1ccc(C(F)(F)F)cc1)NC1CCN(c2nc(N3CCOCC3)c3sccc3n2)CC1 [Compound 24]", "inhibition at 0.5 µM", "> 70%"],
  ["COc1ccc(S(=O)(=O)NC2CCN(c3nc(N4CCOCC4)c4sccc4n3)CC2)cc1 [Compound 27]", "inhibition at 0.5 µM", "33%"],
  ["O=S(=O)(NC1CCN(c2nc(N3CCOCC3)c3sccc3n2)CC1)c1ccc2ccccc2c1 [Compound 30]", "inhibition at 0.5 µM", "54.8%"],
  ["CC(C)(C)OC(=O)NC1CCN(c2nc(N3CCOCC3)c3sccc3n2)CC1 [Compound 16]", "inhibition at 0.5 µM", "< 0%"],
  ["CCOC(=O)c1ccc(NC(=O)NC2CCN(c3nc(N4CCOCC4)c4oc5ncccc5c4n3)CC2)cc1 [Compound 8]", "inhibition at 0.5 µM", "> 70%"]
]}

We next turn to a different molecule, shown below.
Ask | I am curious: what inhibition at 0.5 µM value has been reported for O=C(Nc1ccccc1F)NC1CCN(c2nc(N3CCOCC3)c3sccc3n2)CC1 [Compound 25] ?
Reply | > 70%

----------
# Procedure text: Thermodynamic aqueous solubility, 96-well plate protocol
# Type: physicochemical
# Test context: water, 25 °C, pH 7, water, thermodynamic from solid, in H2O at pH = 7; read-out: Solubility μg/ml in H2O at pH = 7
Observation type: solubility (µg/mL)
Return type: number; implicit unit µg/mL.

Solved cases below.
{"columns": ["Compound", "Reported result"],
 "data": [
  ["CS(=O)(=O)N1CCN(Cc2cc3nc(-c4cccc5[nH]ncc45)nc(N4CCOCC4)c3s2)CC1 [GDC-0941, reference compound]", 16],
  ["CCc1ccc(NC(=O)NC2CCN(c3nc(N4CCOCC4)c4sccc4n3)CC2)cc1", 800]
]}

We next turn to a different compound, shown below.
Ask | I am curious: what solubility value has been reported for Oc1cccc(-c2nc(N3CCOCC3)c3oc4ncccc4c3n2)c1 [PI-103, reference compound] ?
Reply | 5

----------
# Procedure text: Thermodynamic aqueous solubility, 96-well plate protocol
# Format: physicochemical
# Test context: water (aqueous, pH 7), 25 °C, pH 7, water, thermodynamic from solid, pH = 7; read-out: Aqueous Solubility (μg/ml) at pH = 7
# Protocol: The thermodyanamic aqueous solubility was determined using 96-plate plate protocol (Bharate, S. S. and Vishwakarma, R. A. 2015, Bioorg. Med. Chem. Lett. 25, 1561-1567). […] Supernatant (50 μl) was withdrawn into UV 96-well plates (Corning® 96 Well Clear Hat Bottom UV-Transparent Microplate) for analyses with microplate reader (Molecular Devices, USA) at corresponding λmax of the sample. […]
Observation type: solubility (µg/mL)
Return type: number; implicit unit µg/mL.

Ask | I am curious: what solubility value has been reported for "CCOC(=O)c1ccc(NC(=O)NC2CCN(c3nc(N4CCOCC4)c4oc5ncccc5c4n3)CC2)cc1" ?
Reply | 10

----------
# System: A-549 (lung cancer)
# Procedure text: Cytotoxicity, MTT assay
# Format: cell-based
# Test context: Homo sapiens, A549, 48 h treatment
Observation type: IC50

{"columns": ["Smiles text", "Measured target", "IC50"],
 "data": [
  ["O=C(Nc1ccc(C(F)(F)F)cc1)NC1CCN(c2nc(N3CCOCC3)c3sccc3n2)CC1", "A-549 (lung cancer)", "13 µM"],
  ["CCOC(=O)c1ccc(NC(=O)NC2CCN(c3nc(N4CCOCC4)c4oc5ncccc5c4n3)CC2)cc1", "A-549 (lung cancer)", "8 µM"],
  ["CCc1ccc(NC(=O)NC2CCN(c3nc(N4CCOCC4)c4sccc4n3)CC2)cc1", "A-549 (lung cancer)", "7 µM"]
]}

We next turn to a different molecule, shown below.
Ask | I am curious: what IC50 value has been reported for "CN1CCN(C(=O)c2ccc(NC(=O)NC3CCN(c4nc(N5CCOCC5)c5oc6ncccc6c5n4)CC3)cc2)CC1" ?
Reply | 9 µM

----------
The entries below come with measured solubility values attached.
# Procedure text: Thermodynamic aqueous solubility, 96-well plate protocol
# Type: physicochemical
# Test context: water (aqueous, pH 7), 25 °C, pH 7, water, thermodynamic from solid, pH = 7; read-out: Aqueous Solubility (μg/ml) at pH = 7
Return type: number; implicit unit µg/mL.

Ask | I am curious: what solubility value has been reported for "CC(C)(C)c1ccc(S(=O)(=O)NC2CCN(c3nc(N4CCOCC4)c4sccc4n3)CC2)cc1" ?
Reply | 20

Ask | I am curious: what solubility value has been reported for "O=C(Nc1ccccc1F)NC1CCN(c2nc(N3CCOCC3)c3sccc3n2)CC1" ?
Reply | 200

Ask | I am curious: what solubility value has been reported for "CCOC(=O)c1ccc(NC(=O)NC2CCN(c3nc(N4CCOCC4)c4sccc4n3)CC2)cc1" ?
Reply | 120

Where do these numbers come from? They come from patent US10696688B2.
